Entry source: PubChem BioAssay

# target desc: Torsin-1A (Homo sapiens)
# method summary: small-molecule binders of mutant TOR1A in lysate, primary screen, cell lysate, small-molecule microarray, COS7 lysate, 635/667 nm fluorescence (AID 1150);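 further: score pools 667 nm emission and signal to noise measuring lysate protein binding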
# setup conditions: COS7 hTOR1A mutant lysate, 635 nm fluorescence, higher = more signal
Hi all, reminder that labels come from composite z-score, split as Low = under 0.09, Mid = from 0.09 up to 0.4, High = 0.4 and over

Use the examples below as a reference point.
{"columns": ["molecule", "class name"],
 "data": [
  ["CN1C(=O)C2C=CC(C(O)c3cc(C(F)(F)F)cc(C(F)(F)F)c3)N(NC(=O)OC(C)(C)C)C2C1=O (stereo not drawn)", "High"],
  ["COC(=O)C1=CC(CCCO)=CC(C)N(Cc2cccc(OC(F)(F)F)c2)C=C1C(=O)OC (stereo not drawn)", "High"],
  ["O=C1[C@@H]2[C@@H](CC(COc3ccccc3)=C3[C@@H](CCc4ccccc4)OB(O)C[C@@H]32)C(=O)N1Cc1ccccc1", "Mid"],
  ["COCCOC(=O)N1C(=O)[C@@]2(c3cc(C#CCC(C(=O)OC)C(=O)OC)ccc31)[C@H](c1ccc(O)cc1)N1[C@H](c3ccccc3)[C@H](c3ccccc3)OC(=O)[C@H]1[C@@H]2C(=O)NC[C@H](O)c1ccccc1", "High"],
  ["Cc1ccc(N2C(=O)c3ccccc3[C@](C)(C(=O)NCc3ccccc3)[C@@H]2c2ccc(CO)cc2)nc1", "Mid"],
  ["CCOC(=O)C1=CC[C@@H](c2ccccc2)N(S(=O)(=O)c2ccc(C)cc2)[C@H]1c1cccc(OC)c1", "Mid"]
]}

Lab note: sort CO[C@H]1O[C@H](CO)[C@@H](OC(=O)c2ccc(Br)cc2)[C@@H]2OC(=O)[C@H](Cc3ccccc3)C/C=C/C[C@@H](Cc3ccccc3)C(=O)O[C@@H]12 into the matching composite z-score band.
Low

Another molecule to check: C=C(CCCC)C(=O)CC[C@H](OC(=O)c1ccccc1-c1ccccc1C(=O)O)c1ccccc1OCCO
Mid

Another molecule to check: C=CCNC(=O)[C@H]1[C@@H]2C(=O)O[C@@H](c3ccccc3)[C@@H](c3ccccc3)N2[C@@H](c2ccc(O)cc2)[C@]12C(=O)N(C(=O)OCCOC)c1ccc(C#CCC(C(=O)OC)C(=O)OC)cc12
Mid

====

# Test system: wheat germ agglutinin (Triticum aestivum), Alexa647-labelled
# method summary: wheat germ agglutinin binders on compound microarrays, profiling panel, artefact control for SMM control-protein annotation, biochemical, small-molecule microarray, 635/667 nm fluorescence (AID 1140);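 further: score merges 667 nm feature emission with signal to noise over triplicate slides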
# setup conditions: WGA-A647 binding, 635 nm fluorescence, higher = more signal
Catalogue of composite z-score values
# output: bare number, no unit

{"columns": ["compound", "composite z-score"],
 "data": [
  ["COc1cc(CO)cc(I)c1O[C@H]1C=C(C(=O)NCCO)C[C@@H](NCC2CCCCC2)[C@@H]1O", 0.672],
  ["CC(CO)N1C(=O)[C@@H]2[C@H]3C(=O)OCC=C[C@H]3OC23C=CCN(c2ccc(Cl)cc2)C(=O)[C@@H]13 (stereo not given in full)", -1.81],
  ["COCC1=C2[C@@H](CCc3ccccc3)OB(O)C[C@@H]2[C@@H]2C(=O)N(C)C(=O)[C@@H]2C1", -0.098],
  ["O=C1C2C=CC(C(O)c3ccco3)N(Nc3ccccc3)C2C(=O)N1c1ccccc1 (stereo not given)", 0.46],
  ["COc1ccc(C(O)C2C=CC3C(=O)N(c4ccccc4)C(=O)C3N2Nc2ccccc2F)cc1 (stereo not given)", 0.265]
]}

Which composite z-score is listed for Cc1c(NC(=O)/C(C#N)=C/c2ccccc2Cl)c(=O)n(-c2ccccc2)n1C ?
0.195

Another compound to check: O=C1C2C=CC(C(O)c3ccc4c(c3)OCO4)N(Nc3ccccc3)C2C(=O)N1c1ccccc1 (stereo not given)
0.942

Another compound to check: COc1ccc(C#Cc2ccc3c(c2)[C@]2(C(=O)N3)[C@H](C(=O)Nc3nc4ccccc4s3)[C@H]3C(=O)O[C@H](c4ccccc4)[C@H](c4ccccc4)N3[C@@H]2c2ccccc2OCCO)cc1
0.371
